- assayed.system: T1, hRET.mmh (human, UniProt P07949 29-635, biotinylated in the ELISA of Example 4 (biot-hRET.mmh); not in the SPR of Example 3)
- T1 construct: also called biot-hRET.mmh; soluble monomeric human RET
- experiment.notes: SPR Biacore T200, mAb capture, 25 C
property: kon
Write the figure, then the unit, nothing else.

Prompt: State its kon: H4H8076P (antibody, human IgG4, V domains shown, human IgG4 Fc (H4H prefix)) VH: QVQLQQSGPGLVKPSQTLSLTCAISGDSVSSNSVAWNWIRQSPSRGLEWLGRTYYRSNWYNTYAVSVKSRITIDPDTSKNQFSLQLNSVTPEDTALYYCARGHRYSGSYFDYWGQGTLVTVSS VL: DIQMTQSPSSLSASVGDRVTITCRASQNINSYFNWYQQKPGKAPKLLIYAASSLQSGVPSRFSGGGSGTDFTLTISSLQPEDFATYYCQQTYTIPWTFGQGTKVEIK
Completion: 224000 M⁻¹ s⁻¹

Prompt: State its kon: H4H8058P (antibody, human IgG4, V domains shown, human IgG4 Fc (H4H prefix)) VH: QVQLVESGGGVGQPGRSLRLSCVASGFTFRNYGMHWVRQAPGKGLDWVAIIGYDGSKEYNVDSVKGRFTISRDNSKNTLYLQMNSLGAEDTAIYYCARESPITGTTFDYWGQGTLVTVSS VL: DIQMTQSPPSLSASVGDRVTITCRASQSIGNYLNWYQQKPGKAPKILIYAASRLQSGVPSRFSGSGSGTDFTLTISSLQPEDFATYYCQQSYSTPLTFGGGTKVEIK
Completion: 248000 M⁻¹ s⁻¹

Prompt: State its kon: H4H8083P (antibody, human IgG4, V domains shown, human IgG4 Fc (H4H prefix)) VH: QVQLVESGGGVVQPGRSLRLSCAASGFTFNNYVMHWVRQAPGKGLEWVALIWYDGSNKYYADSVKGRFTISRDNSKNALNLQMNSLRAEDTAVYFCARVSIAARNYYYGGLDVWGQGTTVTVSS VL: EIVLTQSPGTLSLSPGERATLSCRASQSVSSTYLAWYQQKPGQAPRLLIYGASSRATGIPDRFSGSGSGTDFTLTISRLEPEDFAVYYCQHYGGSPLTFGGGTKVEIK
Completion: 192000 M⁻¹ s⁻¹

Prompt: State its kon: H4H8060P (antibody, human IgG4, V domains shown, human IgG4 Fc (H4H prefix)) VH: QVTLKESGPVLVKPTETLTLTCTVSGFSLSSARMGVSWIRQPPGKALEWLAHIFSTDEKSYSTSLKSRLSISKDTSLSQVVLIMTNMDPVDTATYYCARRTTMAPYYYYYGMDVWGHGTTVTVSS VL: AIQMTQSPASLSASVGDRVTITCRASQGIRNDLGWYQQKPGKAPKLLISAASSLQSGVPSRFSGSGSGTDFTLTISSLQPEDFATYYCLQDYKYPWTFGQGTKVEIK
Completion: 761000 M⁻¹ s⁻¹

Prompt: State its kon: H4H8087P (antibody, human IgG4, V domains shown, human IgG4 Fc (H4H prefix)) VH: QVQLVESGGGVVQPGRSLRLSCAASGFSFSSYGMHWVRQAPGKGLEWVAVMWYDGSNEYYADSVKGRFIISRDNSKSTLYLEMNSLRAEDTALYYCAREDWDEGYYYGMDVWGQGTTVTVSS VL: DIQMTQSPSSLFASVGDRVTITCRASQDIRYDLGWYQQKPGKAPKRLIYASSILESGVPSRFSGSGSGTEYTLTISTLQSEDFAIYYCLQHNSFPWTFGQGTKVEIK
Completion: 896000 M⁻¹ s⁻¹

Prompt: State its kon: H4H8056P (antibody, human IgG4, V domains shown, human IgG4 Fc (H4H prefix)) VH: QVQLVESGGGVVQPGRSLRLSCAASGFTFRNYGMHWVRQAPGKGLEWVAVKRYDGSDEYFVDSVKGRFTISRDNSKNTLFLQMNSLRVDDTAVYYCARETPITGTTLDYWGQGTLVTVSS VL: DIQMTQSPSSLSASVGDRVTITCRTSQSITNYLNWYQQKPGKAPKLLIYAASRSQSGVPSRFSGSGSGTDFTLTISSLQPEDFATYYCQQSYSTPLTFGGGTKVEIK
Completion: 211000 M⁻¹ s⁻¹
